Target of assay: MAGI2_5, Q86UL8
Sequence (Q86UL8 915-1017): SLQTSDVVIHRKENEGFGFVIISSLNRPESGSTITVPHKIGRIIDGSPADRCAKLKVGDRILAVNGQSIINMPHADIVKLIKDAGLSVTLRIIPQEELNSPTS
Run description: holdup assay
Parameters: key: below the threshold = too weak to quantify, mostly under pKd 3.1 to 4
Stated conditions: plain residues with an end cap or a label only (N-terminal biotin on a linker: ado-ado)
Readout type: pKd

WAKEKQHTRL [SLC17A1, Q14916] ... below the threshold
PSVYSRSQYV [CLDN8, P56748] ... below the threshold
QLGSPTADLA [SIPA1, Q96FS4] ... below the threshold
MQILSKPEFI [NPSR1, Q6W5P4] ... below the threshold
EKPIDSETKM [SLC1A3, P43003] ... below the threshold
IQISELETNV [SLC1A7, O00341] ... 4.11
DLLGGGSDSI [TNRC6B, Q9UPQ9] ... below the threshold
LPPPESESKV [KCNJ9, Q92806] ... below the threshold
MLPANYVEAI [NEB, P20929] ... below the threshold
PALKNGQYWV [CSPG4, Q6UVK1] ... below the threshold
QKNKDREYYV [NRXN3, Q9HDB5] ... below the threshold
GTMFLRETSL [GUCY1A2, P33402] ... 3.98
DAAHHDESNC [FMNL3, Q8IVF7] ... below the threshold
QKASRNESTF [POLR1D, P0DPB6] ... below the threshold
SKQFDKNAYV [CLDN10, P78369] ... below the threshold
QQGLLPHSSC [TYRO3, Q06418] ... below the threshold
PDSYHRRDFW [U2AF2, P26368] ... below the threshold
KKTPVSRSHL [SLC22A3, O75751] ... below the threshold
TKEIPNCTSV [SORCS3, Q9UPU3] ... 3.99
NNMAFETTHF [SLC5A12, Q1EHB4] ... 4.1
VKQYADVEGF [HNRNPK, P61978;P61978-2] ... below the threshold
DFKHTKSFII [JAM2, P57087] ... below the threshold
SQPLLVHDDV [KIT, P10721] ... below the threshold
NKSEPFLTWL [WWTR1, Q9GZV5] ... 3.94
